# Species: Rattus norvegicus
# assay-overview: In vitro facile oxidative conversion to the corresponding quaternary derivative 5a in rat brain homogenate
# Format: functional
Each record here notes measured Activity.
measured-metric: Activity

> print(dat)
                            molecule.smiles  measured.metric          obs.value
1   CCOC(=O)C1=CN(C)C=C(C(=O)NCCc2ccccc2)C1         Activity  0.174 10e-4 K s-1
2             CN1C=CCC(C(=O)NCCc2ccccc2)=C1         Activity   4.12 10e-4 K s-1
3  CN1C=C(C(=O)NCCc2ccccc2)CC(C(=O)NCCc2ccccc2)=C1         Activity  0.084 10e-4 K s-1
4     O=C(NCCc1ccccc1)C1=CN(Cc2ccccc2)C=CC1         Activity    2.1 10e-4 K s-1

These measurements were taken from ChEMBL document CHEMBL1122498.
